Tested on: HBV
ASSAY REMARKS: Anti-HBV activity, HepG2.117 cell line (Tet-off), intracellular HBV DNA by realtime PCR
Assay type: cell-based, Hepatitis B virus
REPORTED CONDITIONS: Hepatitis B virus, HepG2.117, 72 h, HepG2.117 cells, 3 days of treatment
Lab note: cut-off is 200 nM. Strictly less in EC50 is Y. Exactly 200 nM or more is N.

Please review the entries below; each comes with its answer.
ENTRY SMILES: Cc1sc(S(=O)(=O)NC(CF)CF)cc1C(=O)Nc1ccc(F)c(F)c1
CLASSIFICATION: Y

ENTRY SMILES: Cc1sc(S(=O)(=O)NC(C)(C)C(F)(F)F)cc1C(=O)Nc1cccc(C(F)(F)F)c1
CLASSIFICATION: N

ENTRY SMILES: Cc1sc(S(=O)(=O)NC2(C(F)(F)F)CC2)cc1C(=O)Nc1ccc(F)c(F)c1
CLASSIFICATION: Y

ENTRY SMILES: Cc1cc(NC(=O)c2scc(S(=O)(=O)N[C@H]3CCOC3)c2C)ccc1F
CLASSIFICATION: N

ENTRY SMILES: Cc1sc(S(=O)(=O)N[C@H](C)C(F)(F)F)cc1C(=O)Nc1ccc(F)c(Br)c1
CLASSIFICATION: N

Input CC[C@@H](C)NS(=O)(=O)c1cc(C(=O)Nc2ccc(F)c(F)c2)c(C)s1 ; condition: EC50 strictly below 200 nM. Does it hold?
Y

Input Cc1cc(NC(=O)c2cc(S(=O)(=O)N[C@H]3CCOC3)sc2C2CC2)ccc1F ; condition: EC50 strictly below 200 nM. Does it hold?
N

Input Cc1sc(S(=O)(=O)NC2(C)COC2)cc1C(=O)Nc1cc(F)c(F)c(Cl)c1 ; condition: EC50 strictly below 200 nM. Does it hold?
Y
